B1: HDV Ribozyme (parent)
chain: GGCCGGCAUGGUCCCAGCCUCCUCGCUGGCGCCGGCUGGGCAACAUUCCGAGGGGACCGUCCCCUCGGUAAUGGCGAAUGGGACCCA

Variants of: B1
Test: self-cleavage, relative activity (ratio to wild type); higher = more cleavage; co-transcriptional
Catalogue of self-cleavage values
assay readout: self-cleavage

* U69A A77C | 0.199
* C7U A42U | 0.196
* C18U G29C | 0.196
* G39U C64U | 0.597
